Assay: NCI Yeast Anticancer Drug Screen. Data for the mec2-1 strain (AID 157)
Settings: S. cerevisiae mec2-1 strain, at 50.0 µM, hits give high values
Compounds without any hit were thinned out: in the full panel of roughly 79,000, 15% have a hit.
Attribute: growth inhibition
Please give a number only; it is taken to be in %.

Q: Item under review: CC(C)CCCC(C)C1CCC2C3CCC4=CC(O)CCC4(C)C3CCC12C (stereo unspecified) . Reported growth inhibition?
Ans: 90.3

Q: And what about the compound CC(C)C(Sc1nc(-c2ccccc2)c(-c2ccccc2)[nH]1)c1n[nH]c(=S)n1-c1ccccc1 (stereo unspecified) ?
Ans: 97.1

----------
Assay: NCI Yeast Anticancer Drug Screen. Data for the mlh1 rad18 strain (AID 175)
Conditions: S. cerevisiae mlh1 rad18 strain growth inhibition; at 5.0 µM (retest, dose inferred, filed as 0.5)
Method: Growth inhibition of yeast strains with defined genetic alterations is measured as a screen for potential anti-cancer activity. Selected strains with alterations in DNA damage repair or cell cycle control were exposed to compounds and growth inhibition was measured relative to vehicle treated controls. The strain used in this assay is mlh1 rad18
This is part of a sample that, as a whole, favours compounds with a hit. Of some 79,000 tested, about 15% had one in any assay. Calls of active or inactive are those of the source. Rule as the data show it: active = growth inhibition above about 70%; inactive = the rest.
Outcome field: choose from 1 = active, 0 = inactive

Please review the entries below; each comes with its answer.
>  <MOLECULE>
CN(C)N=Nc1c(-c2cccs2)n[nH]c1C(F)(F)F

>  <ASSIGNED CLASS>
1

$$$$
>  <MOLECULE>
O=C1CCCC1CN1CCOCC1 (stereo not given)

>  <ASSIGNED CLASS>
0

$$$$
>  <MOLECULE>
CCCC(=O)Oc1ccc(-c2ccc(Br)cc2)cc1

>  <ASSIGNED CLASS>
0

$$$$
>  <MOLECULE>
CC1(c2ccc(F)cc2)OC(=O)c2c1ccc1ccccc21 (stereo not given)

>  <ASSIGNED CLASS>
0

$$$$

Q: State the result this test recorded for Clc1ncccc1-n1cccc1/C=N\N=C/c1cccn1-c1cccnc1Cl .
Ans: 0

----------
Test: NCI Yeast Anticancer Drug Screen. Data for the mlh1 rad18 strain (AID 175)
Settings: S. cerevisiae mlh1 rad18 strain growth inhibition; at 50.0 µM; hits give high values
Procedure: Growth inhibition of yeast strains with defined genetic alterations is measured as a screen for potential anti-cancer activity. Selected strains with alterations in DNA damage repair or cell cycle control were exposed to compounds and growth inhibition was measured relative to vehicle treated controls. The strain used in this assay is mlh1 rad18
This is part of a sample that, as a whole, favours compounds with a hit. Of some 79,000 tested, about 15% had one in any assay.
METRIC: growth inhibition (%)
Please give a number only; it is taken to be in %.

>  <MOLECULE SMILES>
CC(C)(c1cc(Br)c(O)c(Br)c1)c1cc(Br)c(O)c(Br)c1

>  <growth inhibition, %>
87.5

$$$$

Q: Item under review: Clc1nc(Cl)c(Cc2ccccc2)c(Cl)n1 . Reported growth inhibition?
Ans: 88.5

Q: And what about the compound CN(C)CCCSc1c2ccccc2nc2cc(NCC(=O)Nc3ccccc3-c3ccccc3NC(=O)CNc3ccc4c(SCCCN(C)C)c5ccccc5nc4c3)ccc12 ?
Ans: 90.7

----------
Assay: NCI Yeast Anticancer Drug Screen. Data for the rad50 strain (AID 155);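 note: 0% = growth of vehicle-only cultures of the same strain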
Settings: S. cerevisiae rad50 strain growth inhibition; at 50.0 µM (retest, dose inferred, filed as 5.0)
About 79,000 compounds went through this panel and 15% of them were active in at least one assay; those are over-represented in the sample as a whole. The source made the active and inactive calls. No stated cut-off is given here; in the data, active means growth inhibition above about 70%; inactive means the rest.
Outcome field: choose from active, inactive

Please review the entries below; each comes with its answer.
>  <COMPOUND>
CC(C)(C)C(=O)OCC(=O)c1ccc(-c2ccccc2)cc1

>  <ASSIGNED CLASS>
inactive

$$$$
>  <COMPOUND>
O=C(CC1C(=O)c2ccccc2C1=C1C(=O)c2ccccc2C1=O)c1ccccc1 (centres undefined)

>  <ASSIGNED CLASS>
active

$$$$
>  <COMPOUND>
C(CCCCCN1CCCCC1)CCCCN1CCCCC1

>  <ASSIGNED CLASS>
inactive

$$$$
>  <COMPOUND>
CN(C)CC1CCCCCCCCCCCCC(CN(C)C)C1=O (centres undefined)

>  <ASSIGNED CLASS>
inactive

$$$$
>  <COMPOUND>
CCC(=O)NC1=CCC(C(C)(C)C)CC1 (centres undefined)

>  <ASSIGNED CLASS>
inactive

$$$$

Q: State the result this test recorded for Brc1ccc(N2COc3ccc4ccccc4c3C2)cc1 .
Ans: inactive

Q: And what about the compound CCO/C=C1/N=C(c2cc(Cl)cc([N+](=O)[O-])c2)OC1=O ?
Ans: inactive

Q: And what about the compound c1ccc([P+](Cc2ccc(C[P+](c3ccccc3)(c3ccccc3)c3ccccc3)s2)(c2ccccc2)c2ccccc2)cc1 ?
Ans: active

Q: And what about the compound COc1ccc(Cl)c(-c2cc(OC)c(N=N/C(=N/Nc3ccc([N+](=O)[O-])cc3)c3ccc([N+](=O)[O-])cc3)cc2Cl)c1 ?
Ans: inactive
